The measurements presented in this section are drawn from patent US9326515B2.

- condition_notes: pH 2.7
Some compounds, each annotated with its measured LogP.

{"compound": "C#CCCCCOC(=O)Nc1nc(CON=C(c2ccccc2)c2nc(=O)on2C)cs1 [Example 30]", "LogP": 3.02}
{"compound": "Cn1oc(=O)nc1C(=NOCc1csc(NC(=O)Oc2ccc(F)cc2)n1)c1ccccc1 [Example 5]", "LogP": 3.02}
{"compound": "C#CCCC(C)OC(=O)Nc1nc(CO/N=C(/c2ccccc2)c2nc(=O)on2C)cs1 (racemic) [Example 32]", "LogP": 3.00}
